test system: Caenorhabditis elegans; experiment: Antihelmintic activity against Caenorhabditis elegans Bristol N2 assessed as mortality at 100 ug/ml after 30 mins by microscopic analysis (reference value: 3 +/- 3%); assay type: functional
The reader will find reported Activity values listed item by item below.
Answer in %, number only, no unit symbol.

Here is how some molecules turned out for Activity.
[[record]]
molecule = "CCC(C)C(=O)c1c(O)cc(O)c2c1O[C@](C)(CCC=C(C)C)[C@@H](O)C2 (stereo partly specified) [EMPETRIKARINOL B]"
units_symbol = "%"
observed_result = 0.7

[[record]]
molecule = "CC(C)=CCC/C(C)=C/Cc1c(O)cc(O)c(C(=O)C(C)C)c1O"
units_symbol = "%"
observed_result = 0.7

[[record]]
molecule = "CCC(C)C(=O)c1c(O)cc(O)c(C/C=C(\\C)CCC=C(C)C)c1O (stereo unspecified)"
units_symbol = "%"
observed_result = 37

[[record]]
molecule = "CC(C)C(=O)c1c(O)cc(O)c2c1O[C@]1(C)CC[C@@H](O)C(C)(C)[C@H]1C2 (relative stereo)"
units_symbol = "%"
observed_result = 0.7

[[record]]
molecule = "c1ccc2[nH]c(-c3cscn3)nc2c1 [THIABENDAZOLE]"
units_symbol = "%"
observed_result = 19


Given the molecule `CC(C)=CCC/C(C)=C/Cc1c(O)cc(O)c(C(=O)c2ccccc2)c1O` , what is its reported Activity?
0.7

* * *

assay: Cytotoxicity against mock-infected human MT4 cells assessed as reduction in cell viability after 96 hrs by MTT assay; type: cell-based
Binary call on CC50 at 96 h with cut-off 40 µM: strictly below means 1 (yes), and equality or higher means 0 (no).

[[record]]
compound = "CC(C)C(=O)c1c(O)cc2c3c1OC1(C)CCC(C3C1)C(C)(C)O2 (stereo not given)"
class = "0 (no)"

[[record]]
compound = "CCC(C)C(=O)c1c(O)cc(O)c(C/C=C(\\C)CCC=C(C)C)c1O (stereo not given)"
class = "1 (yes)"

[[record]]
compound = "CCC(C)C(=O)c1c(O)cc2c3c1OC1(C)CCC(C3C1)C(C)(C)O2 (stereo not given)"
class = "0 (no)"


Below 40 µM on CC50 at 96 h? Entry CCC(C)C(=O)c1c(O)cc(O)c2c1O[C@](C)(CCC=C(C)C)[C@@H](O)C2 (stereo not given in full)
0 (no)

* * *

assay: Cytotoxicity against mock-infected human MT4 cells assessed as reduction in cell viability after 96 hrs by MTT assay; type: cell-based
Could you mark each record 1.0 if its CC50 at 96 h falls strictly under 40 µM, and 0.0 if it equals or exceeds it?

Look over these answered cases.
[[record]]
molecule = "CC(C)=CCC/C(C)=C/Cc1c(O)cc(O)c(C(=O)c2ccccc2)c1O"
class = 0.0

[[record]]
molecule = "CC(C)=CCCC1(C)Oc2c(c(O)cc(O)c2C(=O)C(C)C)CC1O (stereo unspecified)"
class = 0.0

[[record]]
molecule = "CC(C)C(=O)c1c(O)cc2c3c1OC(C)(C)C1CCC(C)(CC31)O2 (stereo unspecified)"
class = 1.0

[[record]]
molecule = "CCC(C)C(=O)c1c(O)cc2c3c1OC(C)(C)C1CCC(C)(CC31)O2 (stereo unspecified)"
class = 0.0


# strict comparison: is reported CC50 at 96 h < 40 µM? input = `CC(C)=CCC/C(C)=C/Cc1c(O)cc(O)c(C(=O)C(C)C)c1O`
0.0
